Target: T1, 细胞表面CTLA-4抗原 (CTLA-4 on cells) (UniProt P16410 36-223, limits assumed)
T1 sequence (looked up): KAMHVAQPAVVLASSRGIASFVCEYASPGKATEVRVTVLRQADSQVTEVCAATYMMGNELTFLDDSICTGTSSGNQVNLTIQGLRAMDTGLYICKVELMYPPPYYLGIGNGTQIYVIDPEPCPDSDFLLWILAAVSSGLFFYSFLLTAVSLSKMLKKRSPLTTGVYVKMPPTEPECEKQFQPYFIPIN
Experiment: cell-based or functional assay
reported_property: 混合淋巴细胞反应(MLR), CD4+ T细胞增殖 (cck8), EC50 (nM)
Report the figure in nM without appending any unit label.

## Task Recorded 混合淋巴细胞反应(MLR), CD4+ T细胞增殖 (cck8), EC50 of 全抗N-5 (antibody, human IgG1, kappa, V domains shown, also called 抗CTLA-4全抗体N-5; N-5的全抗体) VH: QVQLVESGGGVVQPGRSLRLSCAASGFTFSGFFNRWVRQAPGKGLEWVTFISYDALKDFYADSVKGRFTISRDNSKNTLYLQMNSLRAEDTAIYYCARRYRWWGKAMDYWGPGTLVTVSS VL: DIVMTQSPLSLPVTPGEPASISCRSSQTVFDSHGQTYLQWYLQKPGQSPQLLIYGASRQVSGVPDRFSGSGSGTDFTLKISRVEAEDVGVYYCMQVWHLPITFGQGTKLEIKR , please.
## Result 4.95
